# EXPERIMENTAL SYSTEM: T1, human SIRPγ (huSIRPγ) (human, UniProt Q9P1W8 29-360, limits assumed, biotinylated in the SPR assay)
# T1 construct: Coated on the plate in ELISA, biotinylated and captured in SPR
# T1 sequence (Q9P1W8 29-360 limits assumed): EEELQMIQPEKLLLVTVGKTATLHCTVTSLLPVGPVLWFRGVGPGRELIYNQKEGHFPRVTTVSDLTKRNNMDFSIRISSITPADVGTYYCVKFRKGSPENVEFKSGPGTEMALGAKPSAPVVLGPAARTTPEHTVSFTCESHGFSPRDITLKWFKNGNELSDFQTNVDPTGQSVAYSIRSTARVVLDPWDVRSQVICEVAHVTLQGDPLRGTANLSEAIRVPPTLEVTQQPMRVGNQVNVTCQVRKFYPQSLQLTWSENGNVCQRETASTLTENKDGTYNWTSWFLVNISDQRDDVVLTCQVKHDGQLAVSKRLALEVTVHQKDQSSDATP
# MEASUREMENT DESCRIPTION: SPR, biotinylated antigen captured, 25 C

{"BINDER": "anti-SIRPα antibody 14 humanized (antibody, human IgG1, V domains shown, Humanized, human IgG1 LALA / kappa) VH: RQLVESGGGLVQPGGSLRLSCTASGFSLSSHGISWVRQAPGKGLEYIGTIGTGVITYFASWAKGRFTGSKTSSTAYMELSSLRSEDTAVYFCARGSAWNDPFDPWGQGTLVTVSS VL: DIEMTQSPSSVSASVGDRVTLTCQASQSVYGNNDLAWYQQKPGQAPKLLIYLASTLATGVPSRFSGSGSGTDFTLTISSLQPEDFATYYCLGGGDDEADNVFGGGTKVEIKR", "binding result": "no binding"}
{"BINDER": "anti-SIRPα antibody 11 humanized (antibody, human IgG1, kappa, L234A L235A, V domains shown, Humanized, human IgG1 LALA / kappa) VH: EVKVEESGGGLVQPGGSLRLSCAASGFSLSSYVMGWVRQAPGKGLEWVSIISSSGSPYYASWVNGRFTISKTSTTMDLQMNSLRAEDTAVYYCARVGPLGVDYFNIWGQGTTVTVSS VL: DIQMTQSPSSLSASVGDRVTITCQAGQSINSYLAWYQQKPGKVPKLLIYYASTLESGVPSRFSGSGSGTDFTLTISSLQPEDVATYYCQSWHYISRSYAFGQGTKVEIKR", "binding result": "no binding"}
